System: Helminthosporium
method: Antifungal activity against Helminthosporium oryzae 2537 ICAR at 28 degC after 72 hrs
Type: functional
diameter of the inhibition zone (DIZ): recorded values
Dear colleague, please return just the value in mm, with no unit written.

Which diameter of the inhibition zone (DIZ) is reported for this molecule? C=CCCCCCCCCc1nc2ccccc2[nH]1 13

Sample CCCCCCCC/C=C/CCCCCCCc1ncc[nH]1 — what was its diameter of the inhibition zone (DIZ)? 12

Please report the recorded diameter of the inhibition zone (DIZ) for CCCCCC[C@@H](O)C/C=C\CCCCCCCc1ncc[nH]1 . 13

Data request, read-out diameter of the inhibition zone (DIZ), for CCCCCC[C@@H](O)C/C=C\CCCCCCCc1nc2c([nH]1)CCCC2 11

Consider the molecule C=CCCCCCCCCc1nc2c([nH]1)CCCC2 and give its measured diameter of the inhibition zone (DIZ). 11

# get_value(readout='diameter of the inhibition zone (DIZ)', item= C=CCCCCCCCCc1nc2cc([N+](=O)[O-])ccc2[nH]1 ) 10

So what's the measured diameter of the inhibition zone (DIZ) for this one? CCCCC/C=C\CC[C@H](O)CCCCCCCc1nc2ccccc2[nH]1 11

Fill in: diameter of the inhibition zone (DIZ) of CCCCCCCC/C=C/CCCCCCCc1nc2cc([N+](=O)[O-])ccc2[nH]1 is ___ 12

Consider the molecule CCCCCC[C@@H](O)C/C=C\CCCCCCCc1nc2ccccc2[nH]1 and give its measured diameter of the inhibition zone (DIZ). 13

Field request: diameter of the inhibition zone (DIZ) | item: C=CCCCCCCCCc1nc2cc(Cl)ccc2[nH]1 15

Quick check: diameter of the inhibition zone (DIZ) of CCCCCCCC/C=C\CCCCCCCc1nc2ccccc2[nH]1 ? 12

Any idea what its diameter of the inhibition zone (DIZ) is? The molecule is C=CCCCCCCCCc1ncc[nH]1 12

Looking for the measured diameter of the inhibition zone (DIZ) of CCCCCC[C@@H](O)C/C=C\CCCCCCCc1nc2cc(Cl)ccc2[nH]1 , can you help? 14

What value of diameter of the inhibition zone (DIZ) has been reported for the following molecule? CCCCC/C=C\CC[C@H](O)CCCCCCCc1nc2cc([N+](=O)[O-])ccc2[nH]1 14

Item CCCCCC[C@@H](O)C/C=C\CCCCCCCc1nc2cc([N+](=O)[O-])ccc2[nH]1 has what recorded diameter of the inhibition zone (DIZ)? 15

Requested field: diameter of the inhibition zone (DIZ). Item: CCCCCCCC/C=C/CCCCCCCc1nc2c([nH]1)CCCC2 12

Would you kindly share the measured diameter of the inhibition zone (DIZ) for CCCCC/C=C\CC[C@H](O)CCCCCCCc1ncc[nH]1 ? 12

Fill in: diameter of the inhibition zone (DIZ) of CCCCCCCC/C=C/CCCCCCCc1nc2cc(Cl)ccc2[nH]1 is ___ 16

Bench note: what diameter of the inhibition zone (DIZ) did CCCCC/C=C\CC[C@H](O)CCCCCCCc1nc2cc(Cl)ccc2[nH]1 show? 14

Record request: diameter of the inhibition zone (DIZ) value, item CCCCC/C=C\CC[C@H](O)CCCCCCCc1nc2c([nH]1)CCCC2 11

====

Recorded measurements of MIC, one per entry
Tested on: Bacillus subtilis
method: Antibacterial activity against Bacillus subtilis ATCC 6051 at 37 degC after 24 hrs by filter paper disk method
Type: functional
condition: Bacillus subtilis, ATCC 6051, 24 h
Expressed in µg/mL, but write only the number.

{"structure-smiles": "CCCCCC[C@@H](O)C/C=C\\CCCCCCCc1nc2c([nH]1)CCCC2", "MIC (µg/mL)": 75}
{"structure-smiles": "CCCCCCCC/C=C/CCCCCCCc1ncc[nH]1", "MIC (µg/mL)": 37.5}
{"structure-smiles": "C=CCCCCCCCCc1nc2cc([N+](=O)[O-])ccc2[nH]1", "MIC (µg/mL)": 37.5}
{"structure-smiles": "CCCCC/C=C\\CC[C@H](O)CCCCCCCc1nc2c([nH]1)CCCC2", "MIC (µg/mL)": 75}
{"structure-smiles": "CCCCCC[C@@H](O)C/C=C\\CCCCCCCc1nc2cc(Cl)ccc2[nH]1", "MIC (µg/mL)": 75}

Can you share its MIC? I mean this compound: CCCCCCCC/C=C/CCCCCCCc1nc2cc([N+](=O)[O-])ccc2[nH]1 37.5

Would you mind telling me what MIC value was observed for C=CCCCCCCCCc1ncc[nH]1 ? 37.5

Give its MIC value. Item: C=CCCCCCCCCc1nc2c([nH]1)CCCC2 75

Look up MIC: CCCCCCCC/C=C/CCCCCCCc1nc2c([nH]1)CCCC2 75

Given the entry CCCCC/C=C\CC[C@H](O)CCCCCCCc1nc2ccccc2[nH]1 , report its measured MIC. 75

====

Tested on: Staphylococcus aureus
method: Antibacterial activity against Staphylococcus aureus MSSA 22 at 37 degC after 24 hrs by filter paper disk method
Assay type: functional
Items are presented alongside their recorded diameter of the inhibition zone (DIZ).
Just the number please, in mm, no unit attached.

Some solved entries appear below for comparison.
{"structure-smiles": "C=CCCCCCCCCc1ncc[nH]1", "measured-endpoint": "diameter of the inhibition zone (DIZ)", "result-number": 16}
{"structure-smiles": "CCCCCC[C@@H](O)C/C=C\\CCCCCCCc1ncc[nH]1", "measured-endpoint": "diameter of the inhibition zone (DIZ)", "result-number": 15}
{"structure-smiles": "CCCCC/C=C\\CC[C@H](O)CCCCCCCc1nc2c([nH]1)CCCC2", "measured-endpoint": "diameter of the inhibition zone (DIZ)", "result-number": 16}

Param item = C=CCCCCCCCCc1nc2cc(Cl)ccc2[nH]1 ; retrieve measured diameter of the inhibition zone (DIZ). 22

Query: diameter of the inhibition zone (DIZ); subject: CCCCC/C=C\CC[C@H](O)CCCCCCCc1nc2ccccc2[nH]1 19

Dear colleague, I am looking for the recorded diameter of the inhibition zone (DIZ) of the following compound: CCCCCCCC/C=C/CCCCCCCc1nc2cc([N+](=O)[O-])ccc2[nH]1 21

So what does the record say about diameter of the inhibition zone (DIZ) for CCCCCC[C@@H](O)C/C=C\CCCCCCCc1nc2c([nH]1)CCCC2 ? 17

Look up diameter of the inhibition zone (DIZ) for this compound: CCCCCCCC/C=C/CCCCCCCc1nc2cc(Cl)ccc2[nH]1 20

====

We begin with a simple list: items and their reported diameter of the inhibition zone (DIZ).
Tested on: Salmonella typhimurium
method: Antibacterial activity against Salmonella Typhimurium MTCC 98 at 37 degC after 24 hrs by filter paper disk method
Type: functional, Salmonella enterica subsp. enterica serovar Typhimurium
Give the value in mm but do not write mm after it.

Reference set (2 entries):
{"structure-smiles": "CCCCCCCC/C=C\\CCCCCCCc1nc2ccccc2[nH]1", "measured-endpoint": "diameter of the inhibition zone (DIZ)", "result-number": 14}
{"structure-smiles": "C=CCCCCCCCCc1nc2ccccc2[nH]1", "measured-endpoint": "diameter of the inhibition zone (DIZ)", "result-number": 16}

Here is another molecule to look at.
Report diameter of the inhibition zone (DIZ) for CCCCC/C=C\CC[C@H](O)CCCCCCCc1ncc[nH]1 please. 12

====

// values below are reported diameter of the inhibition zone (DIZ)
System: Penicillium sp.
method: Antifungal activity against Penicillium sp. at 28 degC after 72 hrs; further: test concentration or dose not given here
Format: functional
Expressed in mm, but write only the number.

Some molecules with recorded diameter of the inhibition zone (DIZ):
{"structure-smiles": "C=CCCCCCCCCc1nc2ccccc2[nH]1", "assayed-target": "Penicillium sp.", "diameter of the inhibition zone (DIZ) / mm": 18}
{"structure-smiles": "C=CCCCCCCCCc1ncc[nH]1", "assayed-target": "Penicillium sp.", "diameter of the inhibition zone (DIZ) / mm": 16}
{"structure-smiles": "CCCCC/C=C\\CC[C@H](O)CCCCCCCc1nc2cc(Cl)ccc2[nH]1", "assayed-target": "Penicillium sp.", "diameter of the inhibition zone (DIZ) / mm": 19}
{"structure-smiles": "C=CCCCCCCCCc1nc2cc([N+](=O)[O-])ccc2[nH]1", "assayed-target": "Penicillium sp.", "diameter of the inhibition zone (DIZ) / mm": 18}
{"structure-smiles": "CCCCC/C=C\\CC[C@H](O)CCCCCCCc1nc2c([nH]1)CCCC2", "assayed-target": "Penicillium sp.", "diameter of the inhibition zone (DIZ) / mm": 17}
{"structure-smiles": "CCCCCCCC/C=C/CCCCCCCc1nc2cc(Cl)ccc2[nH]1", "assayed-target": "Penicillium sp.", "diameter of the inhibition zone (DIZ) / mm": 19}
{"structure-smiles": "CCCCC/C=C\\CC[C@H](O)CCCCCCCc1nc2cc([N+](=O)[O-])ccc2[nH]1", "assayed-target": "Penicillium sp.", "diameter of the inhibition zone (DIZ) / mm": 19}
{"structure-smiles": "CCCCCCCC/C=C/CCCCCCCc1nc2cc([N+](=O)[O-])ccc2[nH]1", "assayed-target": "Penicillium sp.", "diameter of the inhibition zone (DIZ) / mm": 18}

Find diameter of the inhibition zone (DIZ) (Penicillium sp.) for the entry CCCCCC[C@@H](O)C/C=C\CCCCCCCc1nc2c([nH]1)CCCC2 16

Tell me reported diameter of the inhibition zone (DIZ) for CCCCCC[C@@H](O)C/C=C\CCCCCCCc1nc2ccccc2[nH]1 , tested with Penicillium sp.. 19

Recorded diameter of the inhibition zone (DIZ) for CCCCCCCC/C=C/CCCCCCCc1nc2c([nH]1)CCCC2 with Penicillium sp., please? 17
